Data origin: the RepoRT retention time repository (doi:10.1021/acs.analchem.2c02893)

assay: RP, Thermo Scientific Acclaim RSLC 120 C18, 100 × 2.1 mm, 2.2 µm, 30 °C, 0.2 mL/min, estimated dead time 1.1 min; A: 90% water + 10% methanol + 0.01% formic acid + 5 mM ammonium formate, pH 3.61; B: methanol + 0.01% formic acid + 5 mM ammonium formate, pH 3.61; gradient (min/%B) 0/1 1/1 2/39 13/99.9 15/99.9 15.1/1 20.1/1; details: stereoisomer not certain
The threshold is inclusive: LC retention time of exactly 7 min counts as Criterion met; values below receive Criterion not met.

Query: Form field: LC retention time at least 7 min? Entry: O=C1CN=C(c2ccccc2Cl)c2cc(Br)ccc2N1
Result: Criterion met

Query: Form field: LC retention time at least 7 min? Entry: CC=C1CC(C)C(C)(O)C(=O)OCC2=CC[N+]3([O-])CCC(OC1=O)C23 (stereo not drawn) [Senecionine-N-oxide]
Result: Criterion not met

Query: Form field: LC retention time at least 7 min? Entry: CCC1CCCC(OC2CCC(N(C)C)C(C)O2)C(C)C(=O)C2=CC3C(C=C(C)C4CC(OC5OC(C)C(OC)C(OC)C5OC)CC43)C2CC(=O)O1 (stereo not drawn)
Result: Criterion met

Query: Form field: LC retention time at least 7 min? Entry: CCOP(=S)(OCC)Oc1cnc2ccccc2n1
Result: Criterion met

Query: Form field: LC retention time at least 7 min? Entry: COC(=O)C(c1ccccc1Cl)N1CCc2sccc2C1 (stereo not drawn)
Result: Criterion met

Query: Form field: LC retention time at least 7 min? Entry: Clc1ccc2c(c1)CCc1cccnc1C2=C1CCNCC1
Result: Criterion met

Query: Form field: LC retention time at least 7 min? Entry: CC(C)C(NC(=O)c1nn(CCCCCF)c2ccccc12)C(N)=O (stereo not drawn)
Result: Criterion met

Query: Form field: LC retention time at least 7 min? Entry: CCNc1nc(N)nc(Cl)n1
Result: Criterion not met
